methodDescription: recombinant UMI read abundance after kanamycin selection (control-corrected) (log10(CPM+1)); higher = more efficient recombination; extreme values may be limits of the assay; sequences stand for … in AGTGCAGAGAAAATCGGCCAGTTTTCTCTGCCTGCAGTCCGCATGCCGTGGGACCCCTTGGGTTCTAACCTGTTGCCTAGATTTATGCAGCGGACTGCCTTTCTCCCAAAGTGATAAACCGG…AGGTTGGTTTCACT; site = the 11-nt donor
Output Criterion met for recombinant UMI read abundance (log10) not less than 0.5; output Criterion not met otherwise.

>>> assignedclass("GCGACTACATGGACCGGTTTTCCCGGTAATCCGTATTTGGC (site GCGACTACTGC)")
"Criterion met"
>>> assignedclass("ATCTGTCCATGGACCGGTTTTCCCGGTAATCCGTATTTGAT (site ATCTGTCCTAT)")
"Criterion not met"

Q: recombinant UMI read abundance (log10) >= 0.5 for CCCATATCATGGACCGGTTTTCCCGGTAATCCGTATTTGTC (site CACATATCTGA) ?
Ans: Criterion not met

Q: Check the entry GATAAACCATGGACCGGTTTTCCCGGTAATCCGTATTTGGT (site GAGAAACCTAC) : does recombinant UMI read abundance (log10) equal or exceed 0.5?
Ans: Criterion not met

Q: Evaluate AATAATTCATGGACCGGTTTTCCCGGTAATCCGTATTTGAT (site AATAATTCTAT) : recombinant UMI read abundance (log10) at minimum 0.5?
Ans: Criterion met

* * *

Exercise: for every item that follows, state its recorded recombinant barcode read abundance (log10).
methodDescription: recombinant barcode read abundance after kanamycin selection (control-corrected) (log10(CPM+1)); higher = more efficient recombination; sequences stand for … in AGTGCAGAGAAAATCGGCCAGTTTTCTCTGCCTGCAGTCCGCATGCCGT…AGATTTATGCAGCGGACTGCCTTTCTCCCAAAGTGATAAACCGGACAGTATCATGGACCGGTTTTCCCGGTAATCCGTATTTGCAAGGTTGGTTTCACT; site = the 11-nt target
One number for each entry.

>>> quantitativeresult("TTAGACTCTTGGGTTCTAACCTGTTGCCA (site TTAGACTCTTA)")
0.0659
>>> quantitativeresult("CAGGGTTCTTGGGTTCTAACCTGTTGCCT (site CGGGGTTCTAG)")
0.12
>>> quantitativeresult("AGGAGAACTTGGGTTCTAACCTGTTGCCT (site AGGAGAACTAG)")
1.35

Answer for every listed entry: what is its recombinant barcode read abundance (log10)? The entries follow.
1. GTCTAGGCTTGGGTTCTAACCTGTTGCTG (site GCCGAGGCTCA)
2. CTCTCGTCTTGGGTTCTAACCTGTTGCAT (site CTCTCGTCTAA)
3. GAGCTTGCTTGGGTTCTAACCTGTTGCGA (site GAGCTTGCTTC)
4. ATGCTAACTTGGGTTCTAACCTGTTGCCT (site GTGCTAACTTG)
5. ACCTGGCCTTGGGTTCTAACCTGTTGCCT (site ACCTGCCCTAG)
6. AGGAGAACTTGGGTTCTAACCTGTTGCCT (site AGCATAACTAG)

Ans:
[0.242, 0.0866, 0.949, 0.471, 0.147, 0.447]

* * *

methodDescription: recombinant UMI read abundance after kanamycin selection (control-corrected) (log10(CPM+1)); higher = more efficient recombination; extreme values may be limits of the assay; sequences stand for … in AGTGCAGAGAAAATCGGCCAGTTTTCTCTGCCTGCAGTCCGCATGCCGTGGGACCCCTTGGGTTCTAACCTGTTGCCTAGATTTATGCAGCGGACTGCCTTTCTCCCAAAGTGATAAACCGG…AGGTTGGTTTCACT; site = the 11-nt donor
measurementType: recombinant UMI read abundance (log10)
Answers are plain numbers.

Solved entries:
>>> quantitativeresult("GTTATACCATGGACCGGTTTTCCCGGTAATCCGTATTTGCT (site GTTATACCTAG)")
0
>>> quantitativeresult("GCTGGCCCATGGACCGGTTTTCCCGGTAATCCGTATTTGAT (site GCTTGCCCTAT)")
0
>>> quantitativeresult("ACAGTACCATGGACCGGTTTTCCCGGTAATCCGTATTTGAA (site ACAGTATCTTG)")
0
>>> quantitativeresult("CTGCGGTCATGGACCGGTTTTCCCGGTAATCCGTATTTGTC (site CTGCGGTCTGA)")
2.1

Q: Could you share which recombinant UMI read abundance (log10) value was measured for TCCTGGCCATGGACCGGTTTTCCCGGTAATCCGTATTTGTG (site TCCTGGCCTCA) ?
Ans: 0.00405
